The reported numbers originate from the supplement of paper PMC4862054.

- Tested on: MCF-10A
- Test Method Notes: normalised response (% of control), CellTiter-Glo; higher = more viable cells (100 = DMSO, 0 = benzethonium chloride kill control)
- Measurement Setup: incubation time: 72 h
Examples of compounds with documented normalised response follow.
Number only, in %; omit the unit.

(Q) Provide normalised response value for the following compound: CO[C@@]12[C@H](COC(N)=O)C3=C(C(=O)C(C)=C(N)C3=O)N1C[C@@H]1N[C@@H]12 [Mitomycin C] (10 nM)
(A) 96.3

(Q) Consider the compound CCn1c(C(=O)N(C2CC2)C2CC2)cc2c3c(ncn3C)c(Nc3cc(C)n(C)n3)nc21 (1 nM) and give its recorded normalised response.
(A) 102
